# Tested on: human α-thrombin (1.6 nM chromogenic assay; 0.25 μM HPLC assay)
# PROTOCOL_DESCRIPTION: human α-thrombin in 20 mM Tris-HCl pH 7.4 containing 0.1M NaCl
QUANTITY_KIND: cleaved bond

| SUBSTANCE | OBSERVED_VALUE |
| --- | --- |
| H-(D-Phe)-Pro-Arg-Pro-(Gly)4 -Asn-Gly-Asp-Phe-Glu-Glu-Ile-Pro-Glu-Glu-Tyr-Leu-OH | Arg-Pro, minor |
| N-acetyl-Gly-Asp-phe-Leu-Ala-Glu-(Gly)3 -Val-Arg-Pro-(Gly)4 -Asn-Gly-Asp-Phe-Glu-Glu-Ile-Pro-Glu-Glu-Tyr-Leu-OH | Arg-Pro, minor |

Taken from patent US5691311A.
